# measured-on: Free fatty acid receptor 1 (Rattus norvegicus)
# Sequence (Q8K3T4 whole entry): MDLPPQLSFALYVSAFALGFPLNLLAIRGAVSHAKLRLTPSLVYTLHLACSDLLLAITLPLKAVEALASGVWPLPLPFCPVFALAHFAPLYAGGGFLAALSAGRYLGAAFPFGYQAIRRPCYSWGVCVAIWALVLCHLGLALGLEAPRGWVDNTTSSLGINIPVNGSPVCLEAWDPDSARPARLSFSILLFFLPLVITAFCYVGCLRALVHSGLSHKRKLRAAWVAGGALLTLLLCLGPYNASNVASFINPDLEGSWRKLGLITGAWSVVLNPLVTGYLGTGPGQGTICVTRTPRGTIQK
# protocol-text: Displacement of 3-[4-({2',6'-dimethyl-6-[(4-[3H])phenylmethoxy]biphenyl-3-yl}methoxy)phenyl]propanoic acid from rat GPR40 expressed in CHO membranes after 90 mins by liquid scintillation counting in presence of 0.2 % BSA
The following molecules are shown together with reported Ki values.
attribute-measured: Ki

1. Cc1cccc(C)c1-c1cccc(COc2ccc3c(c2)OCCC(C(=O)O)C3)c1 (stereo not drawn) = > 10 µM
2. Cc1cccc(C)c1-c1cccc(COc2ccc3c(c2)CCCCC3CC(=O)O)c1 (stereo not drawn) = > 10 µM
3. Cc1cccc(C)c1-c1cccc(COc2ccc3c(CC(=O)O)coc3c2)c1 = > 10 µM

Values were extracted from ChEMBL document CHEMBL2176869.
